MIC90 listing for selected compounds.
tested on: Staphylococcus aureus; assay: Antibacterial activity against Methicillin resistant staphylococcus aureus (MRSA); format: functional
property_label: MIC90 (µg/mL)

compound	study_target	unit_descriptor	quantitative_result
CCCCCCCCCCNCCN[C@@]1(C)C[C@H](O[C@H]2[C@H](Oc3c4cc5cc3Oc3ccc(cc3Cl)[C@@H](O)[C@@](C)(NC(=O)[C@@H](CC(C)C)NC)C(=O)N[C@@H](CC(N)=O)C(=O)N[C@H]5C(=O)N[C@H]3C(=O)N[C@H](C(=O)N[C@H](C(=O)O)c5cc(O)c(CNCP(=O)(O)O)c(O)c5-c5cc3ccc5O)[C@H](O)c3ccc(c(Cl)c3)O4)O[C@H](CO)[C@@H](O)[C@@H]2O)O[C@@H](C)C1O (some centres undefined)	Staphylococcus aureus	µg/mL	1
CN[C@H](CC(C)C)C(=O)N[C@H]1C(=O)N[C@@H](CC(N)=O)C(=O)N[C@H]2C(=O)N[C@H]3C(=O)N[C@H](C(=O)N[C@H](C(=O)O)c4cc(O)cc(O)c4-c4cc3ccc4O)[C@H](O[C@H]3C[C@](C)(N)[C@@H](O)[C@H](C)O3)c3ccc(c(Cl)c3)Oc3cc2cc(c3O[C@@H]2O[C@H](CO)[C@@H](O)[C@H](O)[C@H]2O[C@H]2C[C@](C)(NCc3ccc(-c4ccc(Cl)cc4)cc3)[C@@H](O)[C@H](C)O2)Oc2ccc(cc2Cl)[C@H]1O [ORITAVANCIN]	Staphylococcus aureus	µg/mL	1
CN[C@H]1C(=O)N[C@@H]2Cc3ccc(cc3)Oc3cc4cc(c3O[C@@H]3O[C@H](C(=O)O)[C@@H](O)[C@H](O)[C@H]3NC(=O)CCCCCCCCC(C)C)Oc3ccc(cc3Cl)[C@@H](O)[C@@H]3NC(=O)[C@H](NC(=O)[C@@H]4NC(=O)[C@@H](NC2=O)c2cc(cc(O)c2Cl)Oc2cc1ccc2O)c1ccc(O)c(c1)-c1c(O[C@H]2O[C@H](CO)[C@@H](O)[C@H](O)[C@@H]2O)cc(O)cc1[C@@H](C(=O)NCCCN(C)C)NC3=O [DALBAVANCIN]	Staphylococcus aureus	µg/mL	0.25
CN[C@H](CC(C)C)C(=O)N[C@H]1C(=O)N[C@@H](CC(N)=O)C(=O)N[C@H]2C(=O)N[C@H]3C(=O)N[C@H](C(=O)N[C@H](C(=O)O)c4cc(O)cc(O)c4-c4cc3ccc4O)[C@H](O)c3ccc(c(Cl)c3)Oc3cc2cc(c3O[C@@H]2O[C@H](CO)[C@@H](O)[C@H](O)[C@H]2O[C@H]2C[C@](C)(N)[C@H](O)[C@H](C)O2)Oc2ccc(cc2Cl)[C@H]1O [VANCOMYCIN]	Staphylococcus aureus	µg/mL	1
